Test system: SK-MEL-2 melanoma
Assay: NCI tumour cell line growth inhibition, 48 h
result_type: TGI

QUERY: Would you kindly share the measured TGI for COc1cc(Cl)cc(-c2nn(-c3cccc(NC(=O)Nc4cccc(C(F)(F)F)c4)c3)cc2-c2ccncc2)c1 ?
RESULT: 3.08 µM

QUERY: Please answer likewise for O=S(=O)(O)c1cc(S(=O)(=O)O)c2cc(N=Nc3c(O)ccc4ccccc34)ccc2c1
RESULT: > 100 µM

QUERY: Same lookup for CCOC(=O)c1nc2ccccc2n(CC)c1=O , please.
RESULT: > 100 µM

QUERY: Now consider Cn1c2c(c3ccccc31)CCN=C2C1CCCOC1=O (stereo unspecified) .
RESULT: > 100 µM

QUERY: Subsequent entry: O=C(O)C1CC=CCC1C(=O)Nc1cccc(O)c1 (stereo unspecified)
RESULT: > 100 µM

QUERY: And the next one, COc1ccc2c(c1)c1c(n2CCN2CCOCC2)-c2cccc(OC)c2CC1 ?
RESULT: > 100 µM

src = PubChem BioAssay (NCI)
